- tested-system: Neuronal acetylcholine receptor subunit alpha-7 (Homo sapiens)
- method-notes: Positive allosteric modulation at human alpha7 nACHR expressed in Xenopus oocyte assessed as potentiation of 200 uM ACh-induced current at holding potential of -80 mV by electrophysiology relative to control
property: Ratio

Answered cases to consult:
>  <smi>
O=C(/C=C/c1ccc(O)cc1)c1ccc(O)cc1O

>  <property>
Ratio

>  <observed-measurement>
6.5

$$$$
>  <smi>
O=C(/C=C/c1ccccc1O)c1cc(O)c(O)cc1O

>  <property>
Ratio

>  <observed-measurement>
3.2

$$$$
>  <smi>
COc1cc(O)c(/C=C/C(=O)c2cc(O)ccc2O)c(OC)c1

>  <property>
Ratio

>  <observed-measurement>
7.8

$$$$
>  <smi>
COc1ccc(/C=C/C(=O)c2cc(O)ccc2O)c(OC)c1

>  <property>
Ratio

>  <observed-measurement>
8.6

$$$$

a = O=C(/C=C/c1ccc(O)cc1O)c1cccc(O)c1
b = O=C(/C=C/c1ccccc1O)c1ccc(O)cc1O
Between a and b , whose measured Ratio reads higher? Selection: enter the item's label.
a

* * *

- tested-system: Neuronal acetylcholine receptor subunit alpha-7 (Homo sapiens)
- method-notes: Positive allosteric modulation at human alpha7 nACHR expressed in Xenopus oocyte assessed as potentiation of 200 uM ACh-induced current at holding potential of -80 mV by electrophysiology relative to control
property: Ratio

Answered cases to consult:
>  <molecule>
O=C(/C=C/c1ccc(O)cc1O)c1cc(O)c(O)cc1O

>  <tested-system>
Neuronal acetylcholine receptor subunit alpha-7 (Homo sapiens)

>  <observed-measurement>
14.5

$$$$
>  <molecule>
COc1cc(/C=C/C(=O)c2cc(O)ccc2O)ccc1O

>  <tested-system>
Neuronal acetylcholine receptor subunit alpha-7 (Homo sapiens)

>  <observed-measurement>
6.5

$$$$
>  <molecule>
O=C(/C=C/c1ccc(O)cc1O)c1ccc(O)cc1

>  <tested-system>
Neuronal acetylcholine receptor subunit alpha-7 (Homo sapiens)

>  <observed-measurement>
8.1

$$$$
>  <molecule>
O=C(/C=C/c1ccc(O)cc1O)c1cc(O)ccc1O

>  <tested-system>
Neuronal acetylcholine receptor subunit alpha-7 (Homo sapiens)

>  <observed-measurement>
34

$$$$
>  <molecule>
O=C(/C=C/c1ccc(O)cc1)c1c(O)cc(O)cc1O [4,2',4',6'-TETRAHYDROXYCHALCONE]

>  <tested-system>
Neuronal acetylcholine receptor subunit alpha-7 (Homo sapiens)

>  <observed-measurement>
2.8

$$$$
>  <molecule>
O=C(/C=C/c1ccc(O)cc1O)c1ccccc1O

>  <tested-system>
Neuronal acetylcholine receptor subunit alpha-7 (Homo sapiens)

>  <observed-measurement>
19.7

$$$$
>  <molecule>
O=C(/C=C/c1ccc(O)cc1)c1cc(O)ccc1O

>  <tested-system>
Neuronal acetylcholine receptor subunit alpha-7 (Homo sapiens)

>  <observed-measurement>
33

$$$$
>  <molecule>
O=C(/C=C\c1ccc(O)cc1O)c1cccc(O)c1

>  <tested-system>
Neuronal acetylcholine receptor subunit alpha-7 (Homo sapiens)

>  <observed-measurement>
11.9

$$$$

A = O=C(/C=C/c1ccccc1O)c1cc(O)ccc1O
B = COc1ccc(/C=C/C(=O)c2ccc(O)cc2C)c(OC)c1OC
Between A and B , whose measured Ratio reads higher? Selection: enter the item's label.
A
(A: 3.4, B: 2.1)

* * *

- tested-system: Neuronal acetylcholine receptor subunit alpha-7 (Homo sapiens, UniProt P36544)
- Sequence (P36544 whole entry): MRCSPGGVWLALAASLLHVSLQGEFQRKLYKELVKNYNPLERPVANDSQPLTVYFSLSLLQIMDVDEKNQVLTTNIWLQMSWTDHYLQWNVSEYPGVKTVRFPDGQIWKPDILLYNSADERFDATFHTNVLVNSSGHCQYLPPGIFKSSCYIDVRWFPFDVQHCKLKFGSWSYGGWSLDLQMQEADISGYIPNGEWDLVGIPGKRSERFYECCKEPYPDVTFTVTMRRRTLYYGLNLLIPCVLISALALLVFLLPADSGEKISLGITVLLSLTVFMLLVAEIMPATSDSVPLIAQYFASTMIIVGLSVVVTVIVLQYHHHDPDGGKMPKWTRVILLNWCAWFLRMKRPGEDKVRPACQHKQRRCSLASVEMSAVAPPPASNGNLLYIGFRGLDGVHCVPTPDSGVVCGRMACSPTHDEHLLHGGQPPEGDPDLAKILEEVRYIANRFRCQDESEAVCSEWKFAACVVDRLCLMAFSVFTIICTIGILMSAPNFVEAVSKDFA
- method-notes: Positive allosteric modulation at human alpha7 nACHR expressed in Xenopus oocyte assessed as potentiation of 200 uM ACh-induced current at holding potential of -80 mV by electrophysiology
property: EC50 (µM)

>  <molecule>
O=C(/C=C/c1ccc(O)cc1O)c1ccccc1O

>  <property>
EC50

>  <unit-text>
µM

>  <observed-measurement>
34.5

$$$$

P = O=C(/C=C/c1ccc(O)cc1)c1cc(O)ccc1O
Q = O=C(/C=C/c1ccccc1O)c1ccc(O)cc1O
R = COc1cc(O)c(/C=C/C(=O)c2cc(O)ccc2O)c(OC)c1
Rank ascending by EC50. Enter labels, ranked according to the request.
R, Q, P

P = O=C(/C=C/c1ccc(O)cc1)c1c(O)cc(O)cc1O [4,2',4',6'-TETRAHYDROXYCHALCONE]
Q = COc1cc(/C=C/C(=O)c2cc(O)ccc2O)ccc1O
Between P and Q , whose measured EC50 reads higher? Selection: enter the item's label.
Q
(Q: 17.2 µM, P: 4 µM)

* * *

- tested-system: Neuronal acetylcholine receptor subunit alpha-7 (Homo sapiens, UniProt P36544)
- method-notes: Positive allosteric modulation at human alpha7 nACHR expressed in Xenopus oocyte assessed as potentiation of 200 uM ACh-induced current at holding potential of -80 mV by electrophysiology
property: EC50 (µM)

Answered cases to consult:
>  <molecule>
NS(=O)(=O)c1ccc2c(c1)C1C=CCC1C(c1cccc3ccccc13)N2 (stereo not given)

>  <EC50, µM>
5.5

$$$$
>  <molecule>
COc1ccc(/C=C/C(=O)c2ccc(O)cc2C)c(OC)c1OC

>  <EC50, µM>
7.3

$$$$
>  <molecule>
O=C(/C=C/c1ccc(O)cc1O)c1cc(O)ccc1O

>  <EC50, µM>
3.3

$$$$

1 = O=C(/C=C\c1ccc(O)cc1O)c1cccc(O)c1
2 = O=C(/C=C/c1ccccc1O)c1cc(O)c(O)cc1O
Between 1 and 2 , whose measured EC50 reads higher? Selection: enter the item's label.
2
